assay: LC-12 squamous cell lung carcinoma implanted subcutaneously in BALB/C mice, chemotherapy study; format: in vivo, female BALB/C mice; conditions: female, mouse, in vivo; tumor-bearing BALB/C mice, oral

{"columns": ["cpd-smiles", "output-unit", "MTD"],
 "data": [
  ["CC(=O)Nc1ccc(C(=O)Nc2ccccc2N)cc1", "mg/kg/day", 60]
]}

====

assay: Pharmacokinetics and food effect in the solid tumor Phase 1 study; type: in vivo, patients; conditions: human, plasma; oral, after a fasting period; preliminary results; read-out: terminal elimination half-life (converted)
attribute-measured: half-life

{"columns": ["cpd-smiles", "attribute-measured", "assay-value"],
 "data": [
  ["CC(=O)Nc1ccc(C(=O)Nc2ccccc2N)cc1", "half-life", "~15 h"]
]}
